Tested on: CN0375-F725-PDC KRAS spheroid viability
Test: Anticancer human tumor CN0375-F725-PDC patient-derived colon carcinoma cell line growth inhibition [KRAS2]
Conditions: curve of first compound; second compound 10 µM; spheroids with HUVEC and MSC
OUTCOME_MEASURE: pIC50
Reminder that pIC50 is minus the log10 of a molar concentration.

Any idea what pIC50 was measured for CC(=O)OC12COC1CC(O)C1(C)C(=O)C(O)C3=C(C)C(OC(=O)C(O)C(NC(=O)OC(C)(C)C)c4ccccc4)CC(O)(C(OC(=O)c4ccccc4)C21)C3(C)C (stereo not drawn) + COc1cc2nc(C)nc(NC(C)c3cc(N)cc(C(F)(F)F)c3)c2cc1OC1CCOC1 ?
5.97

Any idea what pIC50 was measured for CC(C)NCC(C(=O)N1CCN(c2ncnc3c2C(C)CC3O)CC1)c1ccc(Cl)cc1 (stereo not drawn) + CC1OCC2(CCN(c3cnc(Sc4ccnc(N)c4Cl)c(N)n3)CC2)C1N ?
5.23

###

System: CN0375-F725-PDC KRAS spheroid viability
Test: Anticancer human tumor CN0375-F725-PDC cell line growth inhibition [KRAS2];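 note: spheroids exposed to agents for 7 days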
Conditions: second compound 0.316 µM; first compound 0.00316 µM; stronger effect = lower value; spheroids with HUVEC and MSC
OUTCOME_MEASURE: viability, T/C (%)
Numeric only. Scale: %

CN0375-F725-PDC KRAS spheroid viability / viability, T/C / CCN1CCN(Cc2ccc(Nc3ncc(F)c(-c4cc(F)c5nc(C)n(C(C)C)c5c4)n3)nc2)CC1 + C=CC(=O)N1CCN(c2nc(OCC3CCCN3C)nc3c2CCN(c2cccc4cccc(C)c24)C3)CC1CC#N : value?
104

CN0375-F725-PDC KRAS spheroid viability / viability, T/C / CN(C)C/C=C/C(=O)Nc1cc2c(Nc3ccc(F)c(Cl)c3)ncnc2cc1O[C@H]1CCOC1 + COc1cc2nc(C)nc(NC(C)c3cc(N)cc(C(F)(F)F)c3)c2cc1OC1CCOC1 : value?
86.4

CN0375-F725-PDC KRAS spheroid viability / viability, T/C / CCN1CCN(Cc2ccc(Nc3ncc(F)c(-c4cc(F)c5nc(C)n(C(C)C)c5c4)n3)nc2)CC1 + CNCc1ccccc1-c1csc(C(C)Nc2nc(C)nc3cc(OC)c(OC)cc23)c1 : value?
92.6

CN0375-F725-PDC KRAS spheroid viability / viability, T/C / CC(C)n1nc(-c2ccc3oc(N)nc3c2)c2c(N)ncnc21 + C=CC(=O)N1CCN(c2nc(=O)n(-c3c(C)ccnc3C(C)C)c3nc(-c4c(O)cccc4F)c(F)cc23)C(C)C1 : value?
72

CN0375-F725-PDC KRAS spheroid viability / viability, T/C / CC(C)n1nc(-c2ccc3oc(N)nc3c2)c2c(N)ncnc21 + COc1cc2nc(C)nc(NC(C)c3cc(N)cc(C(F)(F)F)c3)c2cc1OC1CCOC1 : value?
77.6

###

System: CN0375-F725-PDC KRAS spheroid viability
Test: Anticancer human tumor CN0375-F725-PDC cell line growth inhibition [KRAS2];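 note: spheroids exposed to agents for 7 days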
Settings: second compound 0.1 µM; first compound 0.01 µM; stronger effect = lower value; spheroids with HUVEC and MSC
OUTCOME_MEASURE: viability, T/C (%)
Numeric only. Scale: %

Any idea what viability, T/C was measured for CN(C)C/C=C/C(=O)Nc1cc2c(Nc3ccc(F)c(Cl)c3)ncnc2cc1O[C@H]1CCOC1 + C=CC(=O)N1CCN(c2nc(OCC3CCCN3C)nc3c2CCN(c2cccc4cccc(C)c24)C3)CC1CC#N ?
87.7

Any idea what viability, T/C was measured for CC1COCCN1c1cc(-c2ccnn2C)c2ccnc(-c3ccn[nH]3)c2n1 (stereo not drawn) + CNCc1ccccc1-c1csc(C(C)Nc2nc(C)nc3cc(OC)c(OC)cc23)c1 ?
97.8

Any idea what viability, T/C was measured for CC1COCCN1c1cc(-c2ccnn2C)c2ccnc(-c3ccn[nH]3)c2n1 (stereo not drawn) + C=CC(=O)N1CCN(c2nc(OCC3CCCN3C)nc3c2CCN(c2cccc4cccc(C)c24)C3)CC1CC#N ?
99.8

###

Provide the reported viability, T/C of each item.
Tested on: CN0375-F725-PDC KRAS spheroid viability
Experiment: Anticancer human tumor CN0375-F725-PDC cell line growth inhibition [KRAS2];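 note: spheroids exposed to agents for 7 days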
Conditions: second compound 0.316 µM; first compound 0.0316 µM; stronger effect = lower value; spheroids with HUVEC and MSC

CN0375-F725-PDC KRAS spheroid viability / viability, T/C / Cn1ncnc1[C@H]1c2n[nH]c(=O)c3cc(F)cc(c23)N[C@@H]1c1ccc(F)cc1 + CC1OCC2(CCN(c3cnc(Sc4ccnc(N)c4Cl)c(N)n3)CC2)C1N : value?
92.5%

CN0375-F725-PDC KRAS spheroid viability / viability, T/C / CC(C)NCC(C(=O)N1CCN(c2ncnc3c2C(C)CC3O)CC1)c1ccc(Cl)cc1 (stereo not given) + C=CC(=O)N1CCN(c2nc(OCC3CCCN3C)nc3c2CCN(c2cccc4cccc(C)c24)C3)CC1CC#N : value?
101%

CN0375-F725-PDC KRAS spheroid viability / viability, T/C / CC1(C)CCC(CN2CCN(c3ccc(C(=O)NS(=O)(=O)c4ccc(NCC5CCOCC5)c([N+](=O)[O-])c4)c(Oc4cnc5[nH]ccc5c4)c3)CC2)=C(c2ccc(Cl)cc2)C1 + COc1cc2nc(C)nc(NC(C)c3cc(N)cc(C(F)(F)F)c3)c2cc1OC1CCOC1 : value?
93.7%

CN0375-F725-PDC KRAS spheroid viability / viability, T/C / CC(=O)Nc1cccc(-n2c(=O)n(C3CC3)c(=O)c3c(Nc4ccc(I)cc4F)n(C)c(=O)c(C)c32)c1 + C=CC(=O)N1CCN(c2nc(OCC3CCCN3C)nc3c2CCN(c2cccc4cccc(C)c24)C3)CC1CC#N : value?
28.1%

CN0375-F725-PDC KRAS spheroid viability / viability, T/C / CC1COCCN1c1cc(-c2ccnn2C)c2ccnc(-c3ccn[nH]3)c2n1 (stereo not given) + CC1OCC2(CCN(c3cnc(Sc4ccnc(N)c4Cl)c(N)n3)CC2)C1N : value?
92.8%

###

Provide the reported viability, T/C of each item.
Tested on: CN0375-F725-PDC KRAS spheroid viability
Assay: Anticancer human tumor CN0375-F725-PDC cell line growth inhibition [KRAS2];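 note: spheroids exposed to agents for 7 days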
Details: second compound 1 µM; first compound 0.01 µM; stronger effect = lower value; spheroids with HUVEC and MSC
Numeric only. Scale: %

CN0375-F725-PDC KRAS spheroid viability / viability, T/C / CC(=O)Nc1cccc(-n2c(=O)n(C3CC3)c(=O)c3c(Nc4ccc(I)cc4F)n(C)c(=O)c(C)c32)c1 + C=CC(=O)N1CCN(c2nc(=O)n(-c3c(C)ccnc3C(C)C)c3nc(-c4c(O)cccc4F)c(F)cc23)C(C)C1 : value?
44.9

CN0375-F725-PDC KRAS spheroid viability / viability, T/C / CC(C)n1nc(-c2ccc3oc(N)nc3c2)c2c(N)ncnc21 + CC1OCC2(CCN(c3cnc(Sc4ccnc(N)c4Cl)c(N)n3)CC2)C1N : value?
61.5

CN0375-F725-PDC KRAS spheroid viability / viability, T/C / CCN1CCN(Cc2ccc(Nc3ncc(F)c(-c4cc(F)c5nc(C)n(C(C)C)c5c4)n3)nc2)CC1 + CC1OCC2(CCN(c3cnc(Sc4ccnc(N)c4Cl)c(N)n3)CC2)C1N : value?
80

CN0375-F725-PDC KRAS spheroid viability / viability, T/C / CCN1CCN(Cc2ccc(Nc3ncc(F)c(-c4cc(F)c5nc(C)n(C(C)C)c5c4)n3)nc2)CC1 + C=CC(=O)N1CCN(c2nc(=O)n(-c3c(C)ccnc3C(C)C)c3nc(-c4c(O)cccc4F)c(F)cc23)C(C)C1 : value?
107

CN0375-F725-PDC KRAS spheroid viability / viability, T/C / Cn1ncnc1[C@H]1c2n[nH]c(=O)c3cc(F)cc(c23)N[C@@H]1c1ccc(F)cc1 + C=CC(=O)N1CCN(c2nc(=O)n(-c3c(C)ccnc3C(C)C)c3nc(-c4c(O)cccc4F)c(F)cc23)C(C)C1 : value?
104

CN0375-F725-PDC KRAS spheroid viability / viability, T/C / CC(=O)Nc1cccc(-n2c(=O)n(C3CC3)c(=O)c3c(Nc4ccc(I)cc4F)n(C)c(=O)c(C)c32)c1 + C=CC(=O)N1CCN(c2nc(OCC3CCCN3C)nc3c2CCN(c2cccc4cccc(C)c24)C3)CC1CC#N : value?
35.7

CN0375-F725-PDC KRAS spheroid viability / viability, T/C / CN(C)C/C=C/C(=O)Nc1cc2c(Nc3ccc(F)c(Cl)c3)ncnc2cc1O[C@H]1CCOC1 + CC1OCC2(CCN(c3cnc(Sc4ccnc(N)c4Cl)c(N)n3)CC2)C1N : value?
85.5

CN0375-F725-PDC KRAS spheroid viability / viability, T/C / CC1COCCN1c1cc(-c2ccnn2C)c2ccnc(-c3ccn[nH]3)c2n1 (stereo not given) + CNCc1ccccc1-c1csc(C(C)Nc2nc(C)nc3cc(OC)c(OC)cc23)c1 : value?
63.5

CN0375-F725-PDC KRAS spheroid viability / viability, T/C / CC1COCCN1c1cc(-c2ccnn2C)c2ccnc(-c3ccn[nH]3)c2n1 (stereo not given) + C=CC(=O)N1CCN(c2nc(=O)n(-c3c(C)ccnc3C(C)C)c3nc(-c4c(O)cccc4F)c(F)cc23)C(C)C1 : value?
100

CN0375-F725-PDC KRAS spheroid viability / viability, T/C / CC(=O)OC12COC1CC(O)C1(C)C(=O)C(O)C3=C(C)C(OC(=O)C(O)C(NC(=O)OC(C)(C)C)c4ccccc4)CC(O)(C(OC(=O)c4ccccc4)C21)C3(C)C (stereo not given) + CNCc1ccccc1-c1csc(C(C)Nc2nc(C)nc3cc(OC)c(OC)cc23)c1 : value?
101
